- experimentalSystem: T1, human CLDN18.2 (human)
- T1 construct: over-expressed on HEK293T or OCUM-1 cells by lentivirus; KATO-III and NUGC4 gastric cancer cells express it naturally; also called hCLDN18.2; hCLDNA18.2
- measurementNotes: imaging cytometry (% fluorescent cells), HEK293T-hCLDN18.2 cells
resultType: EC50 (µg/mL)
Please state the figure in µg/mL; there is no need to write the unit.

[[record]]
binder = "10B11-chIgG1 (antibody, V domains shown, human-mouse chimeric antibody, human IgG1/kappa constant regions) VH: QVQMKESGAELVKPGASVKISCKASGYAFSTYWMDWVKQRPGKGLEWIGQIYPGNGDTNYNGKFKGKATLTADKSSSTADMQLSSLTSEDSAVYFCARLGYGNSFTYWGQGTLVTVSA VL: DIQVTQSPSSLTVTAGEKVTMSCKSSQSLLNSGNQKNYLTWYQQKPGQPPKLLIYWASTRESGVPDRFTGSGFGTDFTLTISSVQAEDLAVYYCQNAYFYPFTFGSGTKLEIKR"
unitslabel = "µg/mL"
resultvalue = 0.03

[[record]]
binder = "37B1-chIgG1 (antibody, V domains shown, human-mouse chimeric antibody, human IgG1/kappa constant regions) VH: EVRLQQSGPELVKPGASVKMSCKASGYSFTDYNMHWVKQSHGKSPEWVGYINPNKGGTGYNQKFKGKATLTVNKSSSTANMELRSLTSEDSAVYYCARIWYGNSFAYWGQGTLVTVSA VL: DVVMTQSPSSLTVTAGEKVTMSCKSSQSLLNSGNQKNYLTWYQQKPGQPPKLLIYWASTRESGVPDRFTGSGSGTDFTLTISSVQAEDLAVYFCQNDYFYPFTFGSGTKLEIKR"
unitslabel = "µg/mL"
resultvalue = 0.031


Please turn your attention to the following entry.
Measured EC50 of 44A8-chIgG1 (antibody, V domains shown, human-mouse chimeric antibody, human IgG1/kappa constant regions) VH: EVRLQQSGPELVKPGASVKMSCKASGYTFTDYNMHWVKQSHGKSLEWIGYINPKNGGIRYNQKFTGKATLTVNKSSSTAYMELRSLTSEDSAVYYCARGGYYGNTLDNWGQGTSVTVSS VL: DIVMTQSPSSLTLTAGEKVTMSCKSSQSLLNSGNQKNYLTWYQQKPGQPPKLLIYWASTSESGVPDRFTGSGSGTDFTLTISSVQAEDLAIYYCQNAYFYPWTFGGGTKLEIKR : 0.069
